recorded conditions: 308.15 K; Liquid

- molecule: "O=C1CCCCC1 [cyclohexanone]"
  vapor or sublimation pressure (kPa): 1.15
- molecule: "ClC(Cl)Cl [trichloromethane]"
  vapor or sublimation pressure (kPa): 40.19
- molecule: "O=C1CCCC1 [cyclopentanone]"
  vapor or sublimation pressure (kPa): 2.8
- molecule: "ClCCCl [1,2-dichloroethane]"
  vapor or sublimation pressure (kPa): 17.02

----------
recorded conditions: 298.15 K; Liquid
± gives the expanded uncertainty stated by the source.

- smiles string: "ClC(Cl)Cl"
  vapor or sublimation pressure: "26.44 ± 0.48 kPa"
- smiles string: "O=C1CCCCC1"
  vapor or sublimation pressure: "0.64 ± 0.06 kPa"
- smiles string: "O=C1CCCC1"
  vapor or sublimation pressure: "1.72 ± 0.09 kPa"
- smiles string: "ClCCCl"
  vapor or sublimation pressure: "10.81 ± 0.23 kPa"
